Numbers sourced from ChEMBL document CHEMBL1147155.

# experiment: Bioavailability in CD1 mouse at 10 mg/kg, po
# Type: ADME, organism-based
# measurement_context: in vivo
test_readout: bioavailability (%)
Report as a plain number; the unit % is understood.

# example entries with known answers
chemical_string: CN1CCN(Cc2ccc3c(c2)Cc2c-3n[nH]c2-c2csc(C#CCNC(=O)Nc3ccccc3)c2)CC1
test_readout: bioavailability
assay_value: 0
//
chemical_string: CN1CCN(Cc2ccc3c(c2)Cc2c(-c4csc(C#CCNC(=O)c5ccccc5)c4)n[nH]c2-3)CC1
test_readout: bioavailability
assay_value: 17
//
chemical_string: COCCOCC#Cc1cc(-c2n[nH]c3c2Cc2cc(Cn4cncn4)ccc2-3)cs1
test_readout: bioavailability
assay_value: 22

# next molecule below
Entry under test: `CN1CCN(Cc2ccc3c(c2)Cc2c-3n[nH]c2-c2csc(C#CCOc3ccccc3)c2)CC1` . Its bioavailability was 75
